Test system: Staphylococcus aureus
Assay: Antibacterial activity against methicillin-resistant Staphylococcus aureus clinical isolate MRSA-22 measured after 16 to 18 hrs by CLSI method
Format: functional
Settings: time 16-18 hrs
ASSAY READOUT: MIC

Can you share its MIC? I mean this compound: COc1cc(OCCCN2CCSCC2)c(CC=C(C)C)c2c1C(=O)CC(c1ccc(OCCCN3CCSCC3)cc1)O2 (stereo not drawn) > 128 µg/mL

Can you share its MIC? I mean this compound: COc1cc(OCCCN2CCCCC2)c(CC=C(C)C)c2c1C(=O)CC(c1ccc(OCCCN3CCCCC3)cc1)O2 (stereo not drawn) > 128 µg/mL

Can you share its MIC? I mean this compound: COc1cc(OCCCN2CCOCC2)c(CC=C(C)C)c2c1C(=O)CC(c1ccc(OCCCN3CCOCC3)cc1)O2 (stereo not drawn) > 128 µg/mL
